Hey, just so you know, these numbers are from ChEMBL document CHEMBL6153041.

# DC50 values compiled below
# target-or-system: von Hippel-Lindau disease tumor suppressor/SWI/SNF-related matrix-associated actin-dependent regulator of chromatin subfamily A member 4 (Homo sapiens, UniProt P51532+P40337)
# measurement-notes: PROTAC activity at VHL1/SMARCA4 in human genetically modified Hela cells assessed as degradation measured after 24 hrs incubation by Nano-Glo HiBiT Lytic Detection Assay
# Format: cell-based
# Sequence (P51532 whole entry, one chain of several): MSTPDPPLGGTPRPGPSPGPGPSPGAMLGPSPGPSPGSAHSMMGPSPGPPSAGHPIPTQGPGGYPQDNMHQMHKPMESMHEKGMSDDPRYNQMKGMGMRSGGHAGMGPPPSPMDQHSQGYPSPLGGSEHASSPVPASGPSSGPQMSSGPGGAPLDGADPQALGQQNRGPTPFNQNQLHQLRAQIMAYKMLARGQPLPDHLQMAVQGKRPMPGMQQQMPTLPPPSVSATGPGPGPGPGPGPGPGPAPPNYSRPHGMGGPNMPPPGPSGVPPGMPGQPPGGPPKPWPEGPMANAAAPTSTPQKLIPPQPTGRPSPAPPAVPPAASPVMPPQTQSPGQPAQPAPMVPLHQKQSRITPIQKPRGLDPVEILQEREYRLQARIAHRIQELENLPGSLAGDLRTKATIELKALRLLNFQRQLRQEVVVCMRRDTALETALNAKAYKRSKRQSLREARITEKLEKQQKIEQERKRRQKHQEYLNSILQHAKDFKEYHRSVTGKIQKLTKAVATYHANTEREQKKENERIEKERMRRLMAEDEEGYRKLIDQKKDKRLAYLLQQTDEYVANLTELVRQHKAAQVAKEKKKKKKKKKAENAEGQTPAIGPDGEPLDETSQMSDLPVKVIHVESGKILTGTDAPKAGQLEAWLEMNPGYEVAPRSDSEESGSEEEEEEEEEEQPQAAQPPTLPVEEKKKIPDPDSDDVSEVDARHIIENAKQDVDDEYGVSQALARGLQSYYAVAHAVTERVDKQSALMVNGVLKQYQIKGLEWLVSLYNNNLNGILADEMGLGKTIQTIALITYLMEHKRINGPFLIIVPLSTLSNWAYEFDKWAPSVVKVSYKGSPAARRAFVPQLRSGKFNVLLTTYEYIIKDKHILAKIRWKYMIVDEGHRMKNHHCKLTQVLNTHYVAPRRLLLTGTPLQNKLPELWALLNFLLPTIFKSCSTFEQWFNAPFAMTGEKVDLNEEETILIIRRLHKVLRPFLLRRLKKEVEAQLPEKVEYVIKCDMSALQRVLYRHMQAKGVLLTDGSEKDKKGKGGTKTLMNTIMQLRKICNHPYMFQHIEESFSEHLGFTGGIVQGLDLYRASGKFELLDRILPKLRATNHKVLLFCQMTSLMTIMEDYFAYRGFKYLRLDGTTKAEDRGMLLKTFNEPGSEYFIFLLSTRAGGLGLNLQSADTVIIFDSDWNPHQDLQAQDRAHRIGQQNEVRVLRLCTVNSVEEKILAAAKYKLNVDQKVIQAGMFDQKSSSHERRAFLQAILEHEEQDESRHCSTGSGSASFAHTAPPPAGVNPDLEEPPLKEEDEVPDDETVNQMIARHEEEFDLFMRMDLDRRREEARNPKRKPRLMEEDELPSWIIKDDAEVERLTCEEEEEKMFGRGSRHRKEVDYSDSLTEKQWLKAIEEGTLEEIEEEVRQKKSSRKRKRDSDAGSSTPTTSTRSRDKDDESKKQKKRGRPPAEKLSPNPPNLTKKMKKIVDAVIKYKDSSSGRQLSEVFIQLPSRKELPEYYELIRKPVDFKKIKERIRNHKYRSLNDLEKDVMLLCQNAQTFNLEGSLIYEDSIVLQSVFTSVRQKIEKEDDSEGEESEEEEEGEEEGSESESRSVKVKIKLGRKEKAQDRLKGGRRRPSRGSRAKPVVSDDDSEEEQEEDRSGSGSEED
measured-quantity: DC50 (nM)

given_smiles=Cc1ncsc1-c1ccc([C@H](C)NC(=O)[C@@H]2C[C@@H](O)CN2C(=O)[C@@H](NC(=O)CN2CCC(c3ccc4c(c3)C3(CCCCC3)c3nc(=O)c5c(Cl)cccc5n3-4)CC2)C(C)(C)C)cc1 meas_value=8.7
given_smiles=Cc1ncsc1-c1ccc([C@H](C)NC(=O)[C@@H]2C[C@@H](O)CN2C(=O)[C@@H](NC(=O)[C@H]2CC[C@H](CN3CCC(c4ccc5c(c4)C4(CCCCC4)c4nc(=O)c6c(Br)cccc6n4-5)CC3)CC2)C(C)(C)C)cc1 meas_value=162
given_smiles=Cc1ncsc1-c1ccc([C@H](C)NC(=O)[C@@H]2C[C@@H](O)CN2C(=O)[C@@H](NC(=O)CCN2CCC(c3ccc4c(c3)C3(CCCCC3)c3nc(=O)c5c(Cl)cccc5n3-4)CC2)C(C)(C)C)cc1 meas_value=543
given_smiles=Cc1ncsc1-c1ccc([C@H](CCCCCN2CCC(c3ccc4c(c3)C3(CCCCC3)c3nc(=O)c5c(Cl)cccc5n3-4)CC2)NC(=O)[C@@H]2C[C@@H](O)CN2C(=O)[C@@H](NC(=O)C2(F)CC2)C(C)(C)C)cc1 meas_value=3.3

* * *

// DC50 lookup, one value per entry
# target-or-system: von Hippel-Lindau disease tumor suppressor/SWI/SNF-related matrix-associated actin-dependent regulator of chromatin subfamily A member 4 (Homo sapiens, UniProt P51532+P40337)
# measurement-notes: PROTAC activity at VHL1/SMARCA4 in human genetically modified Hela cells assessed as degradation measured after 24 hrs incubation by Nano-Glo HiBiT Lytic Detection Assay
# Assay type: cell-based
measured-quantity: DC50 (nM)

given_smiles=Cc1ncsc1-c1ccc([C@H](C)NC(=O)[C@@H]2C[C@@H](O)CN2C(=O)[C@@H](NC(=O)[C@H]2CC[C@H](CN3CCC(c4ccc5c(c4)-n4c(nc(=O)c6c(Br)cccc64)C54CCCCC4)CC3)CC2)C(C)(C)C)cc1 measured_quantity=DC50 qualifier_sign=> meas_value=10000
given_smiles=Cc1ncsc1-c1ccc([C@H](CCCCCN2CCC(c3ccc4c(c3)-n3c(nc(=O)c5c(Cl)cccc53)C43CCCCC3)CC2)NC(=O)[C@@H]2C[C@@H](O)CN2C(=O)[C@@H](NC(=O)C2(F)CC2)C(C)(C)C)cc1 measured_quantity=DC50 qualifier_sign== meas_value=22
given_smiles=Cc1ncsc1-c1ccc([C@H](CCCCCN2CCC(c3ccc4c(c3)C3(CCCCC3)c3nc(=O)c5c(Br)cccc5n3-4)CC2)NC(=O)[C@@H]2C[C@@H](O)CN2C(=O)[C@@H](NC(=O)C2(F)CC2)C(C)(C)C)cc1 measured_quantity=DC50 qualifier_sign== meas_value=1.7
given_smiles=Cc1ncsc1-c1ccc([C@H](CCCCCN2CCC(c3ccc4c(c3)-n3c(nc(=O)c5c(Br)cccc53)C43CCCCC3)CC2)NC(=O)[C@@H]2C[C@@H](O)CN2C(=O)[C@@H](NC(=O)C2(F)CC2)C(C)(C)C)cc1 measured_quantity=DC50 qualifier_sign== meas_value=84
given_smiles=Cc1ncsc1-c1ccc([C@H](C)NC(=O)[C@@H]2C[C@@H](O)CN2C(=O)[C@@H](NC(=O)CCCCCN2CCC(c3ccc4c(c3)C3(CCCCC3)c3nc(=O)c5c(Cl)cccc5n3-4)CC2)C(C)(C)C)cc1 measured_quantity=DC50 qualifier_sign== meas_value=697
given_smiles=Cc1ncsc1-c1ccc([C@H](C)NC(=O)[C@@H]2C[C@@H](O)CN2C(=O)[C@@H](NC(=O)[C@H]2CC[C@H](CN3CCC(c4ccc5c(c4)-n4c(nc(=O)c6c(Cl)cccc64)C54CCCCC4)CC3)CC2)C(C)(C)C)cc1 measured_quantity=DC50 qualifier_sign=> meas_value=10000
given_smiles=Cc1ncsc1-c1ccc([C@H](CC[C@H](C)CCN2CCC(c3ccc4c(c3)n(C3CCCC3)c3nc(=O)c5c(Br)cccc5n43)CC2)NC(=O)[C@@H]2C[C@@H](O)CN2C(=O)[C@@H](NC(=O)C2(F)CC2)C(C)(C)C)cc1 measured_quantity=DC50 qualifier_sign== meas_value=33
given_smiles=Cc1ncsc1-c1ccc([C@H](C)NC(=O)[C@@H]2C[C@@H](O)CN2C(=O)[C@@H](NC(=O)[C@H]2CC[C@H](CN3CC4(CCC(n5cc(-c6cc(-c7ccccc7O)nnc6N)cn5)CC4)C3)CC2)C(C)(C)C)cc1 measured_quantity=DC50 qualifier_sign== meas_value=895
given_smiles=Cc1ncsc1-c1ccc([C@H](C)NC(=O)[C@@H]2C[C@@H](O)CN2C(=O)[C@@H](c2cc(N3CCC(CN4CCC(O[C@H]5C[C@H](Oc6cc(CN7C8CCC7CN(c7cc(-c9ccccc9O)nnc7N)C8)ccn6)C5)CC4)CC3)no2)C(C)C)cc1 measured_quantity=DC50 qualifier_sign== meas_value=1.3

* * *

# target-or-system: von Hippel-Lindau disease tumor suppressor/SWI/SNF-related matrix-associated actin-dependent regulator of chromatin subfamily A member 2 (Homo sapiens, UniProt P51531+P40337)
# Sequence (P51531 whole entry): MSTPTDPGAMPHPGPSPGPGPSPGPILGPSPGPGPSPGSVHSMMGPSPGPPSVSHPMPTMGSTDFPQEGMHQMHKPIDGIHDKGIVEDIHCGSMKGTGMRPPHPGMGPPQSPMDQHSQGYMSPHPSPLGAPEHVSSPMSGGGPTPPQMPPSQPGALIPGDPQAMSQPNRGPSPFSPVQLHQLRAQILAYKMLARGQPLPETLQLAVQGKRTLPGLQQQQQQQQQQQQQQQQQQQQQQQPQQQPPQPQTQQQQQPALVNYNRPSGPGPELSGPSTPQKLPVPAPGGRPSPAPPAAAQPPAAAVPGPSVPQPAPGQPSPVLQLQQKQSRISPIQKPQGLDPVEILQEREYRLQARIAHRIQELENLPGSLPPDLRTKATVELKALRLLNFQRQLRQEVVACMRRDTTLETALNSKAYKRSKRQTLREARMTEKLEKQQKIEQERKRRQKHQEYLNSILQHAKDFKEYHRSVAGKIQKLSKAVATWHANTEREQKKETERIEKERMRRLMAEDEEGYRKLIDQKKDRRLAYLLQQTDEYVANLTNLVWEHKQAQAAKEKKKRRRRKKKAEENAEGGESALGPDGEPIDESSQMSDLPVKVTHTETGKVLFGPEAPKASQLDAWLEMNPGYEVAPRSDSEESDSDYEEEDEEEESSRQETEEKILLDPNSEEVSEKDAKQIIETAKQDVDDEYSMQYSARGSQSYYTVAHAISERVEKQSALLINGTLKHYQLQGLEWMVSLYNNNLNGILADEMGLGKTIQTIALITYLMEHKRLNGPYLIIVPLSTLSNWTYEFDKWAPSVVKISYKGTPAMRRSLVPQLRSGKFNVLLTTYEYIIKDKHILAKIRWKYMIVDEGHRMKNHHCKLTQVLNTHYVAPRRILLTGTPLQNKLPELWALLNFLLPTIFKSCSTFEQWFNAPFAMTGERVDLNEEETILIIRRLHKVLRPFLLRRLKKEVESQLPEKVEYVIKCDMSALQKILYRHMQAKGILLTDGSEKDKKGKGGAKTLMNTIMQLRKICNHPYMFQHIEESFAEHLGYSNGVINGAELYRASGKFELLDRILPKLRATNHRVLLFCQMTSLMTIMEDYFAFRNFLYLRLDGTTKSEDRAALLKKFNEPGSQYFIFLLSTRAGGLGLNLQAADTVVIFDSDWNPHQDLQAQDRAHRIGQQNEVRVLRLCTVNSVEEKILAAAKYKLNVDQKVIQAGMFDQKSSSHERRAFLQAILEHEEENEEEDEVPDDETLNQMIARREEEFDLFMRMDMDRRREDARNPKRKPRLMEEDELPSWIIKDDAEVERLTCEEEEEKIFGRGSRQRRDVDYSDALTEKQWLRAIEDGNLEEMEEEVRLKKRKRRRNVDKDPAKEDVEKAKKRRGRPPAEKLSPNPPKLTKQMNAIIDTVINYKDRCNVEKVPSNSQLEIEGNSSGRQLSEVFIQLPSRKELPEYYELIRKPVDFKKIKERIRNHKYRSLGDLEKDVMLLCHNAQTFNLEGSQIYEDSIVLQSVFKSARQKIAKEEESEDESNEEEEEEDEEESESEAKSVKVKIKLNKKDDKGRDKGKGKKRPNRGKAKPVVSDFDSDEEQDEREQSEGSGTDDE
# Sequence (P40337 whole entry): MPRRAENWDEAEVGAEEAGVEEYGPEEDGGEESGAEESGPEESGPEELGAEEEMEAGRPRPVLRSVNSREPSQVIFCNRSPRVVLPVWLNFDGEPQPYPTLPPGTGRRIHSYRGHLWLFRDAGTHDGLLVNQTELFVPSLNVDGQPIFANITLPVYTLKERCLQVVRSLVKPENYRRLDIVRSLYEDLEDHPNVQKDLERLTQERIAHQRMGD
# measurement-notes: PROTAC activity at VHL1/SMARCA2 in human genetically modified Hela cells assessed as degradation measured after 24 hrs incubation by Nano-Glo HiBiT Lytic Detection Assay
# Type: cell-based
Let's look at some molecules and their measured DC50.
measured-quantity: DC50 (nM)

given_smiles=Cc1ncsc1-c1ccc([C@H](C)NC(=O)[C@@H]2C[C@@H](O)CN2C(=O)[C@@H](NC(=O)CCCCN2CCC(c3ccc4c(c3)C3(CCCCC3)c3nc(=O)c5c(Cl)cccc5n3-4)CC2)C(C)(C)C)cc1 meas_value=105
given_smiles=Cc1ncsc1-c1ccc([C@H](C)NC(=O)[C@@H]2C[C@@H](O)CN2C(=O)[C@@H](NC(=O)CCN2CCC(c3ccc4c(c3)C3(CCCCC3)c3nc(=O)c5c(Cl)cccc5n3-4)CC2)C(C)(C)C)cc1 meas_value=99
given_smiles=Cc1ncsc1-c1ccc([C@H](CCCCCN2CCC(c3ccc4c(c3)-n3c(nc(=O)c5c(Br)cccc53)C43CCCCC3)CC2)NC(=O)[C@@H]2C[C@@H](O)CN2C(=O)[C@@H](NC(=O)C2(F)CC2)C(C)(C)C)cc1 meas_value=3

* * *

# target-or-system: von Hippel-Lindau disease tumor suppressor/SWI/SNF-related matrix-associated actin-dependent regulator of chromatin subfamily A member 4 (Homo sapiens, UniProt P51532+P40337)
# measurement-notes: PROTAC activity at VHL1/SMARCA4 in human genetically modified Hela cells assessed as maximal degradation measured after 24 hrs incubation by Nano-Glo HiBiT Lytic Detection Assay relative to control
# Format: cell-based
# Sequence (P51532 whole entry, looked up, one chain of several): as the sequence (P51532 whole entry, one chain of several) above
measured-quantity: Emax (%)

given_smiles=Cc1ncsc1-c1ccc([C@H](C)NC(=O)[C@@H]2C[C@@H](O)CN2C(=O)[C@@H](NC(=O)[C@H]2CC[C@H](CN3CCC(c4ccc5c(c4)-n4c(nc(=O)c6c(Br)cccc64)C54CCCCC4)CC3)CC2)C(C)(C)C)cc1 measured_quantity=Emax meas_value=37
given_smiles=Cc1ncsc1-c1ccc([C@H](CCCCCN2CCC(c3ccc4c(c3)-n3c(nc(=O)c5c(Br)cccc53)C43CCCCC3)CC2)NC(=O)[C@@H]2C[C@@H](O)CN2C(=O)[C@@H](NC(=O)C2(F)CC2)C(C)(C)C)cc1 measured_quantity=Emax meas_value=93
given_smiles=Cc1ncsc1-c1ccc([C@H](C)NC(=O)[C@@H]2C[C@@H](O)CN2C(=O)[C@@H](NC(=O)CCCN2CCC(c3ccc4c(c3)C3(CCCCC3)c3nc(=O)c5c(Cl)cccc5n3-4)CC2)C(C)(C)C)cc1 measured_quantity=Emax meas_value=70

* * *

This section presents compounds with their documented DC50 values.
# target-or-system: von Hippel-Lindau disease tumor suppressor/SWI/SNF-related matrix-associated actin-dependent regulator of chromatin subfamily A member 4 (Homo sapiens, UniProt P51532+P40337)
# measurement-notes: PROTAC activity at VHL1/SMARCA4 in human genetically modified Hela cells assessed as degradation measured after 24 hrs incubation by Nano-Glo HiBiT Lytic Detection Assay
# Format: cell-based
measured-quantity: DC50

given_smiles=Cc1ncsc1-c1ccc([C@H](C)NC(=O)[C@@H]2C[C@@H](O)CN2C(=O)[C@@H](NC(=O)CCCCN2CCC(c3ccc4c(c3)C3(CCCCC3)c3nc(=O)c5c(Cl)cccc5n3-4)CC2)C(C)(C)C)cc1 meas_value="> 10 µM"
given_smiles=Cc1ncsc1-c1ccc([C@H](C)NC(=O)[C@@H]2C[C@@H](O)CN2C(=O)[C@@H](NC(=O)[C@H]2CC[C@H](CN3CCC(c4ccc5c(c4)C4(CCCCC4)c4nc(=O)c6c(Cl)cccc6n4-5)CC3)CC2)C(C)(C)C)cc1 meas_value="> 10 µM"
given_smiles=Cc1ncsc1-c1ccc([C@H](C)NC(=O)[C@@H]2C[C@@H](O)CN2C(=O)[C@@H](NC(=O)CCCN2CCC(c3ccc4c(c3)C3(CCCCC3)c3nc(=O)c5c(Cl)cccc5n3-4)CC2)C(C)(C)C)cc1 meas_value="7 µM"
